Sourced from patent US20240238423A9

Target: Human BCL-XL protein (N-terminal HiBiT tagged BCL-XL in HT1080 cells) (Homo sapiens)
Construct: expressed in transfected cells; host or cells: HT-1080 (ATCC CCL-121), stably transduced with lentivirus pLV-UBC-N-HiBiT-BCL-XL-PGK-puro and selected with puromycin
Sequence (Q07817 whole entry): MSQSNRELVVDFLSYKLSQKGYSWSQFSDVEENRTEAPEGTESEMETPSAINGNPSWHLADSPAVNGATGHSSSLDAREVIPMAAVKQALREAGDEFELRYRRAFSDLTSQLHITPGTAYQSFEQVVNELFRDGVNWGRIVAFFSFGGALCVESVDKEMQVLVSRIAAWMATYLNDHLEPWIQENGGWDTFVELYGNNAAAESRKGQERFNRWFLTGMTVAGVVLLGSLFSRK
Experiment: HiBiT based degradation assay
Format: cell-based
Settings: BCL-XL degradation normalized with DMSO control; HT1080 cells expressing HiBiT-BCL-XL; 24 h
Method: Human BCL-XL protein coding open reading frame fused with N-terminal HiBiT coding sequence was synthesized from Integrated DNA Technologies (IDT). […] HT1080 cells expressing N-terminal HiBiT tagged BCL-XL were dispensed into a 384-well plate pre-spotted with compounds at varying concentrations. […] After incubation, luminescence was read on a PHERAstar FSX Plate Reader (BMG). […]
METRIC_NAME: Ymin (24 h)

Known Ymin (24 h) results, listed for orientation:
* Cc1c(OC[C@@H](C)CC2CCN(CC(=O)Nc3ccc4c(C5CCC(=O)NC5=O)nn(C)c4c3)CC2)cccc1-c1ccc(N2CCc3cccc(C(=O)Nc4nc5ccccc5s4)c3C2)nc1C(=O)O (single isomer, unassigned) [Compound 263b] | A (Ymin < 50%)
* Cc1c(OCCCN2CCN(CC(=O)Nc3cccc4c(C5CCC(=O)NC5=O)nn(C)c34)[C@@H](C(F)(F)F)C2)cccc1-c1ccc(N2CCc3cccc(C(=O)Nc4nc5ccccc5s4)c3C2)nc1C(=O)O (stereo partly shown) [Compound 218a] | B (50% ≤ Ymin < 70%)
* Cc1c(OCC[C@@H]2CCCN(CC(=O)Nc3ccc4c(C5CCC(=O)NC5=O)nn(C)c4c3)C2)cccc1-c1ccc(N2CCc3cccc(C(=O)Nc4nc5ccccc5s4)c3C2)nc1C(=O)O (stereo partly shown) [Compound 180a] | B (50% ≤ Ymin < 70%)
* Cc1c(OCCC[C@@H]2CCCN(CC(=O)Nc3ccc4c(C5CCC(=O)NC5=O)nn(C)c4c3)C2)cccc1-c1ccc(N2CCc3cccc(C(=O)Nc4nc5ccccc5s4)c3C2)nc1C(=O)O (stereo partly shown) [Compound 207a] | A (Ymin < 50%)
* Cc1cc(OCCCC2CCN(CC(=O)Nc3ccc4c(C5CCC(=O)NC5=O)nn(C)c4c3)CC2)ccc1-c1ccc(N2CCc3cccc(C(=O)Nc4nc5ccccc5s4)c3C2)nc1C(=O)O (stereo not shown) [Compound 184] | A (Ymin < 50%)

Any idea what Ymin (24 h) came out for Cc1c(OCCCN2CCN(CCCOc3ccc4c(C5CCC(=O)NC5=O)nn(C)c4c3)C(C(F)(F)F)C2)cccc1-c1ccc(N2CCc3cccc(C(=O)Nc4nc5ccccc5s4)c3C2)nc1C(=O)O (stereo not shown) [Compound 165] on Human BCL-XL protein (N-terminal HiBiT tagged BCL-XL in HT1080 cells) (Homo sapiens)?
B (50% ≤ Ymin < 70%)

# value lookup — system Human BCL-XL protein (N-terminal HiBiT tagged BCL-XL in HT1080 cells) (Homo sapiens), readout Ymin (24 h), item Cc1c(OCCC2CCN(CCN3CCN(c4ccc5c(C6CCC(=O)NC6=O)nn(C)c5c4)CC3)CC2)cccc1-c1ccc(N2CCc3cccc(C(=O)Nc4nc5ccccc5s4)c3C2)nc1C(=O)O (stereo not shown) [Compound 232]
A (Ymin < 50%)

Notebook entry, Human BCL-XL protein (N-terminal HiBiT tagged BCL-XL in HT1080 cells) (Homo sapiens) assay: Ymin (24 h) of Cc1c(OCCCC2CCN(C3CCN(c4ccc5c(C6CCC(=O)NC6=O)nn(C)c5c4)CC3)CC2)cccc1-c1ccc(N2CCc3cccc(C(=O)Nc4nc5ccccc5s4)c3C2)nc1C(=O)O (stereo not shown) [Compound 306] = ?
A (Ymin < 50%)

Missing value: Ymin (24 h), Human BCL-XL protein (N-terminal HiBiT tagged BCL-XL in HT1080 cells) (Homo sapiens), entry Cc1c(OCCC(F)(F)C2CCN(CC(=O)Nc3ccc4c(C5CCC(=O)NC5=O)nn(C)c4c3)CC2)cccc1-c1ccc(N2CCc3cccc(C(=O)Nc4nc5ccccc5s4)c3C2)nc1C(=O)O (stereo not shown) [Compound 229] . Fill in?
B (50% ≤ Ymin < 70%)

Recorded Ymin (24 h) for Cc1c(OCCC[C@@H]2CCN(CC(=O)Nc3cccc4c(C5CCC(=O)NC5=O)nn(C)c34)CC2(F)F)cccc1-c1ccc(N2CCc3cccc(C(=O)Nc4nc5ccccc5s4)c3C2)nc1C(=O)O (stereo partly shown) [Compound 197b] with Human BCL-XL protein (N-terminal HiBiT tagged BCL-XL in HT1080 cells) (Homo sapiens), please?
B (50% ≤ Ymin < 70%)

Find the measured Ymin (24 h): item Cc1c(OCCC[C@H]2CCN(CC(=O)Nc3ccc4c(C5CCC(=O)NC5=O)nn(C)c4c3)[C@@H](C)C2)cccc1-c1ccc(N2CCc3cccc(C(=O)Nc4nc5ccccc5s4)c3C2)nc1C(=O)O (stereo partly shown) [Compound 343d] , target or system Human BCL-XL protein (N-terminal HiBiT tagged BCL-XL in HT1080 cells) (Homo sapiens).
A (Ymin < 50%)

Enter reported Ymin (24 h) observed with Human BCL-XL protein (N-terminal HiBiT tagged BCL-XL in HT1080 cells) (Homo sapiens) for Cc1cc(OCCC[C@H]2CCN(CC(=O)Nc3ccc4c(C5CCC(=O)NC5=O)nn(C)c4c3)[C@@H](C)C2)ccc1-c1ccc(N2CCc3cccc(C(=O)Nc4nc5ccccc5s4)c3C2)nc1C(=O)O (stereo partly shown) [Compound 344a]
A (Ymin < 50%)

Identify the measured Ymin (24 h) of Cn1nc(C2CCC(=O)NC2=O)c2ccc(N3CCN(CCC[C@H]4CC[C@H](Oc5cccc(-c6ccc(N7CCc8cccc(C(=O)Nc9nc%10ccccc%10s9)c8C7)nc6C(=O)O)c5C(F)(F)F)CC4)CC3)cc21 (stereo partly shown) [Compound 328a] for Human BCL-XL protein (N-terminal HiBiT tagged BCL-XL in HT1080 cells) (Homo sapiens).
A (Ymin < 50%)

Lab note: need Ymin (24 h) with Human BCL-XL protein (N-terminal HiBiT tagged BCL-XL in HT1080 cells) (Homo sapiens) for entry Cc1c(OCCCC2CCN(CC(=O)Nc3cc4c(cc3F)c(C3CCC(=O)NC3=O)nn4C)CC2)cccc1-c1ccc(N2CCc3cccc(C(=O)Nc4nc5ccccc5s4)c3C2)nc1C(=O)O (stereo not shown) [Compound 295] , please look it up.
B (50% ≤ Ymin < 70%)

Notebook entry, Human BCL-XL protein (N-terminal HiBiT tagged BCL-XL in HT1080 cells) (Homo sapiens) assay: Ymin (24 h) of Cc1c(O[C@H]2CC[C@H](CCCN3CCC(Oc4ccc5c(C6CCC(=O)NC6=O)nn(C)c5c4)CC3)CC2)cccc1-c1ccc(N2CCc3cccc(C(=O)Nc4nc5ccccc5s4)c3C2)nc1C(=O)O (stereo partly shown) [Compound 337a] = ?
A (Ymin < 50%)

What is its Ymin (24 h) for Human BCL-XL protein (N-terminal HiBiT tagged BCL-XL in HT1080 cells) (Homo sapiens)? Entry: Cc1c(O[C@H]2CCC3(CCN(CC(=O)Nc4ccc5c(C6CCC(=O)NC6=O)nn(C)c5c4)CC3)C2)cccc1-c1ccc(N2CCc3cccc(C(=O)Nc4nc5ccccc5s4)c3C2)nc1C(=O)O (single isomer, unassigned) [Compound 268a]
A (Ymin < 50%)

Fill in the recorded Ymin (24 h) for this compound, with Human BCL-XL protein (N-terminal HiBiT tagged BCL-XL in HT1080 cells) (Homo sapiens) as test system: Cc1c(OCCCC2CCN([C@H](C)C(=O)Nc3ccc4c(C5CCC(=O)NC5=O)nn(C)c4c3)CC2)cccc1-c1ccc(N2CCc3cccc(C(=O)Nc4nc5ccccc5s4)c3C2)nc1C(=O)O (stereo partly shown) [Compound 164b]
A (Ymin < 50%)

Query Ymin (24 h) on Human BCL-XL protein (N-terminal HiBiT tagged BCL-XL in HT1080 cells) (Homo sapiens) for Cc1c(OCCN2CCN(CC(=O)Nc3ccc4c(C5CCC(=O)NC5=O)nn(C)c4c3)CC2)cccc1-c1ccc(N2CCc3cccc(C(=O)Nc4nc5ccccc5s4)c3C2)nc1C(=O)O (stereo not shown) [Compound 103]
A (Ymin < 50%)
